- MEASUREMENT_NOTES: qHTS for Inhibitors of human tyrosyl-DNA phosphodiesterase 1 (TDP1): qHTS in cells in absence of CPT; also: nearly all actives have a fitted effect of over 55% in size
- CONDITION_SET: DT40 Tdp1-/- hTDP1 cells, no CPT, ATP luminescence, 48 h
About 64,000 (15%) of roughly 420,000 compounds were called active. Not shown: some 27% with an inconclusive outcome. Calls follow the shape of the dose curve; as a rule, active = well fitted inhibition curve with a large enough effect; inconclusive = small, poorly fitted or top-dose-only effect; inactive = flat fitted curve, though single readings scatter. The list is a sample of the results.
Form entry, call: pick from active, inactive

Q. // outcome(item) with item = "CC(C)Oc1ccc(C(=O)NCC(=O)Nc2ccc3c(c2)CCC3)cc1"
A. inactive

Q. // outcome(item) with item = "O=C(NCCc1nnc2ccc(SCC(=O)N3CCOCC3)nn12)c1ccccc1"
A. inactive

Q. // outcome(item) with item = "Cc1c(C(=O)N2CCCC2)oc2c1-c1nn(CC(=O)NCc3ccc(OC(C)C)cc3)cc1CC2"
A. active

Q. // outcome(item) with item = Cc1c(C(=O)NCC2CCCN(C)C2)cnn1-c1nccc(-c2ccco2)n1 (stereo unspecified)
A. inactive

Q. // outcome(item) with item = CCCCCCOC(=O)NCC(O)c1ccccc1 (stereo unspecified)
A. inactive

Q. // outcome(item) with item = "O=C(NCc1ccccn1)C1CCN(S(=O)(=O)c2ccc(Br)cc2)CC1"
A. inactive

Q. // outcome(item) with item = "CCC(C)(C)NC(=O)CN(C(=O)CCC(=O)Nc1cc(C)ccn1)c1ccc2c(c1)OCCO2"
A. inactive

Q. // outcome(item) with item = "CCOC(=O)c1ccc(NC(=S)N2CCN(c3ccccn3)CC2)cc1"
A. inactive

Q. // outcome(item) with item = "COCCNC(=O)Cn1cc2c(n1)CCCCC2"
A. inactive

Q. // outcome(item) with item = "OCCN1CCN(CCO)C1=S"
A. inactive

Q. // outcome(item) with item = "Cc1cc2c3ccccc3[nH]c(=O)n2n1"
A. inactive
